Reference source for all entries: paper PMC12136037

Biological target: ~100 representative kinases (Homo sapiens, UniProt P51955)
Construct: Recombinant protein kinase domains with a concentration of 2 μM
Sequence (P51955 whole entry, the tested form may be a part): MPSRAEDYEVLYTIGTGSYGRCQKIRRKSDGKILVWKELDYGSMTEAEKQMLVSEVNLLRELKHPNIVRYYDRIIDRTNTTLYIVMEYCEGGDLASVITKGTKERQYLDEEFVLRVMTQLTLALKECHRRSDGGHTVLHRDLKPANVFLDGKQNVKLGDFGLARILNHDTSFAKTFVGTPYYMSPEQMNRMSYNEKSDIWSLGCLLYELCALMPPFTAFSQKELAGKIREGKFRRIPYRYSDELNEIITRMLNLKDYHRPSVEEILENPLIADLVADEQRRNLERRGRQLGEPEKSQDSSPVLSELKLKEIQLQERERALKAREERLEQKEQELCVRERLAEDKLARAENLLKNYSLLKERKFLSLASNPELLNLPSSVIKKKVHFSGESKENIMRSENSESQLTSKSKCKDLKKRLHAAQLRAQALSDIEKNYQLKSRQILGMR
Test: DSF 100 kinase selectivity screen;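 note: compound tested at 20 µM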
Assay type: binding
Details: protein NEK2; average of three replicates
Procedure: Recombinant protein kinase domains with a concentration of 2 μM were mixed with a 20 μM compound solution in dimethyl sulfoxide (DMSO), 20 mM Hepes (pH 7.5), and 500 mM NaCl. SYPRO Orange (5000×, Invitrogen) was added as a fluorescence probe (1μl/ml). Subsequently, temperature-dependent protein unfolding profiles were measured using the QuantStudio 5 realtime PCR machine (Thermo Fisher Scientific, Waltham, MA, USA). […] The temperature was raised with a step rate of 3°C/min. […]
Observed Property: dTm (K)
Give bare numbers, in K.

// known answers, use as guide
Input: Indicate the recorded dTm value for this compound: O=C(Nc1cccc(-c2c[nH]c3ncnc(N4CCOCC4)c23)c1)C1(C(=O)Nc2cc(Br)c(F)cc2F)CC1 [Compound 25]
Output: -3.69

Input: Indicate the recorded dTm value for this compound: CC(C)(C)c1cc(NC(=O)Nc2cccc(-c3c[nH]c4ncnc(N5CCOCC5)c34)c2)n(-c2ccc3ncccc3c2)n1 [Compound 28]
Output: 2.21

Input: Indicate the recorded dTm value for this compound: Cc1ccc(C(=O)Nc2ccc(CN3CCN(C)CC3)c(C(F)(F)F)c2)cc1C#Cc1cnc2[nH]ncc2c1 [GZD-824, reference compound]
Output: 0.45

Provide dTm for all items below, preserving their order.
1. COc1cc2c(Oc3ccc(NC(=O)C4(C(=O)Nc5ccc(F)cc5)CC4)cc3F)ccnc2cc1OCCCN1CCOCC1 [Foretinib, reference compound]
2. Cc1cc(NC(=O)C2(C(=O)Nc3cccc(-c4c[nH]c5ncnc(N6CCOCC6)c45)c3)CC2)ccc1F [Compound 20]
3. O=C(Nc1ccc(F)cc1)C1(C(=O)Nc2cccc(-c3c[nH]c4ncnc(N5CCOCC5)c34)c2)CC1 [Compound 2]
4. COc1ccc(NC(=O)C2(C(=O)Nc3cccc(-c4c[nH]c5ncnc(N6CCOCC6)c45)c3)CC2)cc1 [Compound 16]

Output:
1: 1.91; 2: 1.19; 3: 0.52; 4: 2.18
